experimental.endpoint: melting point

As a guide, the following entries are already answered.
>>> result("O=C([C@H]1CCCCN1)N1CCN(c2nc(NCc3ccc(Cl)cc3Cl)cc(N3CCOCC3)n2)CC1 [Compound 7b]")
"167.8 to 169.5 °C"
>>> result("Cc1cc(NCc2ccc(Cl)cc2Cl)nc(N2CCN(C(=O)C3CCN(C)CC3)CC2)n1 [Compound 12c]")
"146.4 to 148 °C"
>>> result("O=C([C@H]1CCCCN1)N1CCN(c2nc(Cl)cc(NCc3ccc(F)cc3F)n2)CC1 [Compound 6e]")
"87.2 to 89 °C"
>>> result("Cc1cc(NCc2ccc(Cl)cc2Cl)nc(N2CCN(C(=O)[C@H]3CCCCN3)CC2)n1 [Compound 12a]")
"82.6 to 84.5 °C"
>>> result("O=C(C1CCCCC1)N1CCN(c2nc(Cl)cc(NCc3ccc(Cl)cc3Cl)n2)CC1 [Compound 6b]")
"175.3 to 177.1 °C"
>>> result("CN(C)CC(=O)N1CCN(c2nc(Cl)cc(NCc3ccc(Cl)cc3Cl)n2)CC1 [Compound 6c]")
"166.5 to 168.5 °C"

// next item, melting point requested
QUERY: Give recorded melting point. Cc1cc(NCc2ccc(Cl)cc2Cl)nc(N2CCN(C(=O)[C@H]3CCCO3)CC2)n1 [Compound 12d]
RESULT: 124.3 to 125.8 °C
